EXPERIMENT_NOTES: up-regulation of insulin promoter-GFP reporter – imaging, high-content screening, mouse beta cells (AID 1625);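 also: total cells summed across four imaged fields per well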
MEASUREMENT_CONTEXT: MIN6 insulin promoter-GFP reporter, at 5 µM; measured here: cytotoxicity, nuclei count
Out of some 190,000 compounds screened, about 570 (0.3%) were called active. For the sample, actives were picked, then their nearest neighbours and some compounds at random.
Reported cell count is given for each of the following molecules.
Express your answer in cells, writing the number without its unit.

Sample records with cell count:
Task: Value lookup for cell count; key = CC(C)(C)c1cc(C(=O)NCc2cccnc2)ccn1
Result: 1480

Task: Input CN1CCN(CCNC(=O)Nc2ccc([N+](=O)[O-])cc2)CC1
Result: 1230

Task: Input Cc1ccc(C(=O)NC(=S)NCc2cccnc2)cc1
Result: 1660

Task: Input COc1ccc(F)cc1S(=O)(=O)N1CCCCC1
Result: 1090

Task: Input CC(C)(C)c1ccc(CCC2OCC(CN3CCOCC3)O2)cc1 (stereo unspecified)
Result: 1070

Others:
Task: Value lookup for cell count; key = CCOc1ccc(NC(=S)N2CCC(N(C)CC3CCCO3)CC2)cc1 (stereo unspecified)
Result: 1410

Task: Input Cc1cccc(C(=O)Nc2ccccc2C(=O)NCc2cccnc2)c1
Result: 1550

Task: Input O=c1c(-c2ccc(Cl)cc2)[n+]([O-])c2ccccc2n1OCc1nc2ccccc2[nH]1
Result: 1200

Task: Input CCC(C)N(C)C1CCN(C(=S)Nc2ccc(OC)cc2)CC1 (stereo unspecified)
Result: 1120

Task: Input CCOc1ccc(NC(=S)N2CCCCCC2)cc1
Result: 1240

Task: Input O=C(CSc1nnc(-c2ccc(NS(=O)(=O)c3ccccc3)cc2)o1)NCC1CCCO1 (stereo unspecified)
Result: 1210
